Test system: NCI-H460
ASSAY SUMMARY: NCI tumour cell line growth inhibition, 48 h
Structures can show the parent of a compound that is named as a salt. Active and inactive are the calls of the source. No stated cut-off is given here; in the data, active = GI50 up to about 1.1 µM and inactive = higher.
Classes used: 1 = active, -1 = inactive

CC(C)Cn1cnc2c(SCc3ccc(Cl)cc3Cl)nc(N)nc21 : -1
CC1(C)O[C@@H]2C[C@H]3[C@@H]4C[C@H](F)C5=CC(=O)C=C[C@]5(C)[C@@]4(F)[C@@H](O)C[C@]3(C)[C@]2(C(=O)CO)O1 [FLUOCINOLONE ACETONIDE] : -1
O=C(CCc1ccccc1CO)NCCc1ccccc1 : -1
CCCc1ccc(OCC(=O)N/N=C/c2c(-c3ccccc3)[nH]c3ccccc23)cc1 : -1
N#C/C(=C/c1ccc([N+](=O)[O-])o1)c1ccccc1 : -1
NC(=O)C1(c2ccccc2)Nc2ccccc2S1 (configuration not stated) : -1
OC1c2ccccc2CC12Cc1ccccc1C2 (configuration not stated) : -1
CC#C[I+]c1ccccc1 : -1
O=C(CC1(O)C(=O)Nc2ccccc21)c1ccccc1O (configuration not stated) : -1
C=C(C)C1CCC2(C)CC1c1c(c(C)cc3c1[nH]c1ccccc13)O2 (configuration not stated) : -1
CC(C)NC1CCCCC2c3cc(F)ccc3[C@]12O (some centres not stated) : -1
CSCCC(C(=O)O)N(C)C (configuration not stated) : -1
COc1ccc2c3c1C(=O)CCC3CO2 (configuration not stated) : -1
CN(C)CCOC(c1ccccc1)c1ccccc1 [DIPHENHYDRAMINE HYDROCHLORIDE] : -1
Cc1cc(=O)c2c(O)cc3c(c2o1)CC=C(COC1OC(COC2OC(CO)C(O)C(O)C2O)C(O)C(O)C1O)CO3 (configuration not stated) : -1
Cc1c(N=NN(C)C)cc[n+]([O-])c1C : -1
CO[C@H]1C[C@](C)(O)Cc2cc3c(c(O)c21)C(=O)c1c(O)cc2c(c1C3=O)O[C@@H]1O[C@@]2(C)[C@H](O)[C@@H](N(C)C)[C@@H]1O : 1
O=C1C(Cl)C(c2cc3cc(Br)ccc3nc2Cl)N1c1ccc(Cl)cc1 (configuration not stated) : -1
COc1ccc(C)cc1-c1cc(Sc2ccccc2)c(-c2cc(C)ccc2OC)o1 : -1
Cc1ccc(S(=O)(=O)c2c3nc4ccccc4nc3n3c2[nH]c2ccccc23)cc1 : -1
Cc1cc(S(=O)(=O)Nc2nnc3c4ccccc4cnn23)c(S)cc1Cl : -1
CCCCCCCCCCCCCCC(O)C[N+](C)(CCO)CCO (configuration not stated) : -1
COc1ccc2c(c1)CN1C(=N2)CSC1c1c(Cl)cccc1[N+](=O)[O-] (configuration not stated) : -1
O=C(O)c1cc2ccccc2c(O)c1O : -1
C[C@@]12CCCC(=O)N1[C@@H](CO)C(c1ccccc1)O2 (some centres not stated) : -1
CNc1cc2oc(=O)cc(C)c2cc1C : -1
CC1=C(C(=O)NCc2ccccc2)C(/C=C/c2ccccc2)C(C(=O)NCc2ccccc2)=C(C)N1 : -1
COc1cccc2c1C(=O)c1c(O)c3c(c(O)c1C2=O)C[C@@](O)(/C(C)=N/NC(=O)c1ccc(Cl)c(Cl)c1)C[C@@H]3OC1CC(N)C(O)C(C)O1 (some centres not stated) : 1
O=CC1C(Cl)=Nc2nc3ccccc3n2C1c1ccccc1 (configuration not stated) : -1
Clc1ccc(Nc2nnc(CNc3ccc(-c4nnc(Nc5ccc(Cl)cc5)o4)cc3)o2)cc1 : -1
Cc1ccccc1NC(=O)C(=O)C(C#N)c1ccc(Cl)cc1 (configuration not stated) : -1
COc1ccc(-c2nnc3n(Cc4ccccc4)c4ccccc4n3c2=O)cc1 : -1
Cc1c(-c2ccc(O)cc2)n(CCCCCCNCCOC(=O)NCCCc2ccc(N(CCCl)CCCl)cc2)c2ccc(O)cc12 : -1
COc1cc2c(cc1OC)OC(c1c(OC)ccc(OC)c1O)CC2 (configuration not stated) : -1
CSc1ccc(/C=C2\N=C(c3ccccc3)N(c3nc4cc(Cl)c(F)cc4s3)C2=O)cc1 : -1
NC[C@H]1Nc2ccccc2[C@@H](O)C1O (some centres not stated) : -1
CC(=O)c1cccc(NCn2nnc3ccccc32)c1 : -1
CCCC12Cc3c(OC)ccc(OC)c3CC(Cc3c(OC)ccc(OC)c31)C2=O (configuration not stated) : -1
C[C@H](CCC(=O)NCCS(=O)(=O)O)[C@H]1CC[C@H]2[C@@H]3CC[C@@H]4C[C@H](O)CC[C@]4(C)[C@H]3CC[C@]12C : -1
Cc1cccc2c1NC(c1c(C)[nH]c3ccccc13)C2 (configuration not stated) : -1
Cc1cc(C)c2c(-c3ccccc3)cc(=O)[nH]c2c1 : -1
COc1ccc(C(=O)/C=C/c2ccc(OCC#N)cc2)cc1 : -1
